Parameter activation at 1 µM: see the listing below.
Assay Target: glucocerebrosidase (Gcase) (Homo sapiens)
Sequence (P04062 40-536): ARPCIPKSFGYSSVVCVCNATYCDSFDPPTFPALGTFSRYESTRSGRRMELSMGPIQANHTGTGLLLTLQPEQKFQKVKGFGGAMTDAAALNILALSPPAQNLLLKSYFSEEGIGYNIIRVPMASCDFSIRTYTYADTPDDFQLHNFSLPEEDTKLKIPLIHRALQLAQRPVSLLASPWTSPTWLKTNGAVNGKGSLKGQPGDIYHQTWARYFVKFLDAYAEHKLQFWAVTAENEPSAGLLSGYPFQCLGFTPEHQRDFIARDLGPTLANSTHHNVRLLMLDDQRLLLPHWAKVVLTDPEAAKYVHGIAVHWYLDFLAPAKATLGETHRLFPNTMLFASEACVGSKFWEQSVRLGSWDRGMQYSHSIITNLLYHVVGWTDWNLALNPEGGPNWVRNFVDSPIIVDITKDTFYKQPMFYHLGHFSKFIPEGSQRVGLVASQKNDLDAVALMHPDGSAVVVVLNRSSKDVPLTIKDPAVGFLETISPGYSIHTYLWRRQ
Assay Name: Glucocerebrosidase (Gcase) activation assay, 4-methylumbelliferyl-beta-D-glucopyranoside substrate, fluorescence
Assay type: biochemical
Reported Conditions: 0.25 h, pH 4.7, test compound at 1.0 μM, 10 nM GCase, 100 nM saposin C, read-out: Percent Gcase Activation 1 μM Test Compound
Experimental: The ability of exemplary compounds to activate glucocerebrosidase (Gcase) was measured. A 484 μL aliquot of a 1.0 mg/mL solution of phosphatidylserine (PS) (Sigma P7769) in chloroform was evaporated under a stream of nitrogen for 1 hour. The lipid film was dissolved over 4 minutes of vigorous vortexing in 40 mL of 176 mM K2HPO4/50 mM citric acid (pH 4.7) containing 7.5 μL of triton X-100, resulting in a mixed micellar preparation with a composition of 0.32 mM triton and 0.37 mol % PS. […]

Cc1cc(C)n2ccc(C(=O)N[C@H](C)C3CC3)c2n1 [III-65] ... 30 to 60%
CCC(NC(=O)c1ccn2c(C)cc(C)nc12)c1cccnc1 (stereo not drawn) [IV-50] ... 30 to 60%
Cc1cc(C)n2ccc(C(=O)NC(C)(C)c3ccc(F)cc3)c2n1 [IV-103] ... > 60%
Cc1cc(C)n2ccc(C(=O)N[C@@H](C)C3CC3)c2n1 [III-64] ... > 60%
Cc1cc(C)n2ccc(C(=O)NC(C)c3ccc(-c4cccnc4)cc3)c2n1 (stereo not drawn) [IV-43] ... 30 to 60%

// query activation at 1 µM value for entry Cc1cc(C)n2ccc(C(=O)NC(=O)C3CC3)c2n1 [III-74]
< 30%

* * *

Assay Target: glucocerebrosidase (Gcase) (Homo sapiens)
Assay Name: Glucocerebrosidase (Gcase) activation assay, 4-methylumbelliferyl-beta-D-glucopyranoside substrate, fluorescence
Assay type: biochemical
Reported Conditions: 0.25 h, pH 4.7, test compound at 0.1 μM, 10 nM GCase, 100 nM saposin C, read-out: Percent Gcase Activation 0.1 μM Test Compound
Readout: activation at 0.1 µM

In the examples that follow, each entry is paired with its recorded activation at 0.1 µM.
COCc1cc(C)n2ccc(C(=O)N[C@H]3CC[C@H](OCC(C)C)CC3)c2n1 [IV-4] ... 10 to 20%
Cc1cc(C)n2ccc(C(=O)N[C@H](C)c3ccc(F)cc3)c2n1 [IV-97] ... 10 to 20%
CCC(=O)Nc1ccc(C(C)NC(=O)c2ccn3c(C)cc(C)nc23)cc1 (centres unmarked) [IV-98] ... > 20%
Cc1cc(Cl)n2ccc(C(=O)NC(C)(C)C3CC3)c2n1 [III-12] ... 10 to 20%

// query activation at 0.1 µM value for entry Cc1cc(-c2cccnc2)nc2c(C(=O)N[C@H]3CC[C@H](OC(C)(C)C)CC3)ccn12 [III-56]
10 to 20%

COCC(NC(=O)c1ccn2c(C)cc(C)nc12)c1ccccc1 (centres unmarked) [III-20] , same question.
< 10%

COCc1cc(C(F)F)n2ccc(C(=O)NC3(c4cc(F)cc(F)c4)CC3)c2n1 [III-9] , same question.
< 10%

Cc1cc(C(F)F)n2ccc(C(=O)N[C@H]3CC[C@H](OCC(C)(C)C)CC3)c2n1 [IV-10] , same question.
> 20%

Cc1cc(C)n2ccc(C(=O)NC(C)c3cn(C)c4ccccc34)c2n1 (centres unmarked) [IV-49] , same question.
10 to 20%

CCOc1ccc(C(CC)NC(=O)c2ccn3c(C)cc(C)nc23)cc1F (centres unmarked) [IV-51] , same question.
> 20%

Cc1cc(C)n2ccc(C(=O)NC(C)c3cccc(N4CCCC4)c3)c2n1 (centres unmarked) [IV-102] , same question.
< 10%

Cc1cc(C)n2ccc(C(=O)NC(C)c3ccccc3-n3cccn3)c2n1 (centres unmarked) [IV-67] , same question.
< 10%

* * *

Assay Name: Compound solubility in water
Format: physicochemical
Readout: solubility (µg/mL)

Cc1cc(N2CCC(F)(F)CC2)nc2c(C(=O)NC(C)(C)C3CC3)ccn12 ... 1.4
COC1CCC(Nc2cc(C)n3ccc(C(=O)NC(C)(C)C4CC4)c3n2)CC1 (stereo not shown) ... 10.2

I: CO[C@H]1CC[C@H](NC(=O)c2ccn3c(C)cc(-c4ccc(F)cc4)nc23)CC1
II: Cc1cc(-c2cccnc2)nc2c(C(=O)NC(C3CC3)C(F)(F)F)ccn12 (stereo not shown)
III: COc1ccc(C(C)NC(=O)c2ccn3c(C)cc(C)nc23)cc1F (stereo not shown)
Please rank these molecules by solubility in descending order. Return value: ordered labels per request.
II, III, I

I: Cc1cc(C)n2ccc(C(=O)NC(C)c3ccc4c(c3)CC(C)O4)c2n1 (stereo not shown)
II: Cc1cc(C)n2ccc(C(=O)N[C@H](C)C3CC3)c2n1
Exercise: compare I and II ; which one has the greater solubility? Refer to your chosen item by its label in the answer.
II

* * *

Assay Target: glucocerebrosidase (Gcase) (Homo sapiens, UniProt P04062)
Assay Name: Glucocerebrosidase (Gcase) activation assay, 4-methylumbelliferyl-beta-D-glucopyranoside substrate, fluorescence
Type: biochemical
Reported Conditions: 0.25 h, pH 4.7, test compound at 1.0 μM, 10 nM GCase, 100 nM saposin C, read-out: Percent Gcase Activation 1 μM Test Compound
Parameter activation at 1 µM: see the listing below.

In the examples that follow, each entry is paired with its recorded activation at 1 µM.
Cc1cc(-c2ccncc2)nc2c(C(=O)NC(C)(C)C3CC3)ccn12 ... > 60%
Cc1cc(C)n2ccc(C(=O)N[C@H](C)c3ccc4c(c3)OCO4)c2n1 ... > 60%
Cc1cc(C)n2ccc(C(=O)NC(C)c3cccc4c3OCCCO4)c2n1 (stereo not drawn) ... > 60%
CCC(NC(=O)c1ccn2c(C)cc(C)nc12)c1ccc2c(c1)OCCO2 (stereo not drawn) ... > 60%
Cc1cc(C(F)F)n2ccc(C(=O)N[C@H]3CC[C@H](OCC(C)C)CC3)c2n1 ... > 60%
Cc1cc(C)n2ccc(C(=O)N[C@@H](C)c3ccc(F)cc3)c2n1 ... > 60%
COC1CCC(Nc2cc(C)n3ccc(C(=O)NC(C)(C)C4CC4)c3n2)CC1 (stereo not drawn) ... 30 to 60%
Cc1cc(-c2cncnc2)nc2c(C(=O)NC(C)(C)C3CC3)ccn12 ... > 60%

Next molecule, activation at 1 µM to be filled in.
// query activation at 1 µM value for entry `Cc1cc(-c2ccc(F)cc2)n2ccc(C(=O)N[C@@H](C)C3CC3)c2n1`
30 to 60%

* * *

Assay Target: glucocerebrosidase (Gcase) (Homo sapiens)
Assay Name: Glucocerebrosidase (Gcase) activation assay, 4-methylumbelliferyl-beta-D-glucopyranoside substrate, fluorescence
Type: biochemical
Reported Conditions: 0.25 h, pH 4.7, test compound at 1.0 μM, 10 nM GCase, 100 nM saposin C, read-out: Percent Gcase Activation 1 μM Test Compound
Protocol: The ability of exemplary compounds to activate glucocerebrosidase (Gcase) was measured. A 484 μL aliquot of a 1.0 mg/mL solution of phosphatidylserine (PS) (Sigma P7769) in chloroform was evaporated under a stream of nitrogen for 1 hour. The lipid film was dissolved over 4 minutes of vigorous vortexing in 40 mL of 176 mM K2HPO4/50 mM citric acid (pH 4.7) containing 7.5 μL of triton X-100, resulting in a mixed micellar preparation with a composition of 0.32 mM triton and 0.37 mol % PS. […]
Readout: activation at 1 µM

CCCO[C@H]1CC[C@H](NC(=O)c2ccn3c(C)cc(-c4cccnc4)nc23)CC1 [III-57] ... > 60%
Cc1cc(-c2cocn2)nc2c(C(=O)N[C@H]3CCCc4ccccc43)ccn12 [III-28] ... 30 to 60%
Cc1cc(F)nc2c(C(=O)NC(C)(C)C3CC3)ccn12 [III-17] ... > 60%

// query activation at 1 µM value for entry CCC(CO)(NC(=O)c1ccn2c(C)cc(C)nc12)c1ccccc1 (centres unmarked) [IV-101]
30 to 60%

CO[C@H]1CC[C@H](NC(=O)c2ccn3c(C)cc(-c4ccc(F)cc4)nc23)CC1 [III-48] , same question.
> 60%

CCCO[C@H]1CC[C@H](NC(=O)c2ccn3c(C)cc(C(F)F)nc23)CC1 [IV-12] , same question.
> 60%

Cc1cc(C)n2ccc(C(=O)NC(C)c3ccccc3-c3ccccc3)c2n1 (centres unmarked) [IV-70] , same question.
> 60%

CCc1ccc(C(C)NC(=O)c2ccn3c(C)cc(C)nc23)cc1 (centres unmarked) [IV-44] , same question.
> 60%

Cc1cc(C)n2ccc(C(=O)NC(C)c3ccc(C)c(F)c3)c2n1 (centres unmarked) [IV-104] , same question.
> 60%

Cc1c2c(nc3c(C(=O)N[C@H]4CC[C@H](OC(C)(C)C)CC4)ccn13)CCC2 [III-71] , same question.
30 to 60%

Cc1cc(C)n2ccc(C(=O)NC(C)C34CC5CC(C3)C(C5)C4)c2n1 (centres unmarked) [IV-89] , same question.
> 60%

Cc1nc2c(C(=O)N[C@@H](C)C3CC3)ccn2c(C)c1-c1ccc(F)cc1 [III-52] , same question.
< 30%

Cc1cc(C)n2ccc(C(=O)NC(CC(C)C)C3CC3)c2n1 (centres unmarked) [III-24] , same question.
> 60%

CCCCO[C@H]1CC[C@H](NC(=O)c2ccn3c(C)cc(N4CCOCC4)nc23)CC1 [IV-15] , same question.
> 60%

# credit: patent US11124516B2
